# credit: the supplement of paper PMC12042874

experiment: amyloid nucleation score (Sup35N fusion, yeast selection) (log enrichment); library NNK3; higher = more nucleation; inactive = no reads after selection;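 note: zero at mode of non-aggregating sequences after 7 days selection at 30°C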
MEASUREMENT NAME: amyloid nucleation score

| SUBSTANCE | MEASUREMENT NAME | RESULT |
| --- | --- | --- |
| MPLTFTSRSSDVICLNVGSG | amyloid nucleation score | -0.232 |
| RTCSLRCFCYCHLYFYDVNT | amyloid nucleation score | inactive |
| SVDYDMARSVGCPFWSPKRV | amyloid nucleation score | inactive |
| HANRSCCLPCIHLPFSRVLS | amyloid nucleation score | inactive |
| IDDEIANSSFQVWLKGGFLV | amyloid nucleation score | inactive |
| TGSMFRSRPRSEG | amyloid nucleation score | inactive |
| LFMLGQLLTWDFHALSSGYV | amyloid nucleation score | 0.523 |
| HLHVVHKIAS | amyloid nucleation score | -0.471 |
| WGMLRTTT | amyloid nucleation score | -0.567 |
| NSYKVLTYVFCQVRANTIYC | amyloid nucleation score | 2.04 |
| ESDITICS | amyloid nucleation score | inactive |
| FSFITL | amyloid nucleation score | inactive |
| FAAARSYFKLFHIYCDDVTG | amyloid nucleation score | 1.96 |
| TLLPLQMFTNHWALMPSSHR | amyloid nucleation score | 0.125 |
| SDSFSGPVKEPRYWGSQ | amyloid nucleation score | inactive |
| CCSMARAITISGNVELKFD | amyloid nucleation score | inactive |
| QTTLSYIVCMQSRQLRNRAW | amyloid nucleation score | 0.848 |
| TALAEQ | amyloid nucleation score | -0.402 |
| PLITVDY | amyloid nucleation score | -0.153 |
| SLCFRSIINIGFFK | amyloid nucleation score | 2.15 |
| MIIPSTVMQSLSTCILERAS | amyloid nucleation score | inactive |
| ILQTRKRVNVLNIVIWQIAF | amyloid nucleation score | 1.09 |
| YSIVRGWMDARDLHMLHLEI | amyloid nucleation score | inactive |
| FFKVSPMYY | amyloid nucleation score | inactive |
| MILLLSGGCVTESFWG | amyloid nucleation score | inactive |
| WFGEYPQFWRARSYFRTSDW | amyloid nucleation score | inactive |
| IVCNIN | amyloid nucleation score | -0.036 |
| QTCSNYLNTFRSRRDWLVKG | amyloid nucleation score | inactive |
| LRVKNDVHGLLELGSVDVSI | amyloid nucleation score | inactive |
| SLLSEMSTR | amyloid nucleation score | inactive |
| MRFDNVTMRVLLCFS | amyloid nucleation score | inactive |
| FLNFSGLPGFVCPVIPSHYV | amyloid nucleation score | inactive |
| TFPRERWDCPCKVIFRSVTP | amyloid nucleation score | inactive |
| FLLIILTLYASTCRAQYAFR | amyloid nucleation score | 1.42 |
| RYVQLCADYSHGF | amyloid nucleation score | inactive |
| VMDIVHPSSDAVVGRA | amyloid nucleation score | -0.125 |
| LSQIEGWKCIGWVHYMVDSI | amyloid nucleation score | inactive |
| NFFVKTNRHGNVTTFGGR | amyloid nucleation score | inactive |
| KVTLRNRFISMPNFMIEP | amyloid nucleation score | inactive |
| DSFRDRGCQQKIEIF | amyloid nucleation score | inactive |
| NTCKRYGEVI | amyloid nucleation score | 2.2 |
| SFLGLMSMEELITS | amyloid nucleation score | inactive |
| FSACRDRTLGDHGQQPRDIG | amyloid nucleation score | inactive |
| YHTAWWAEMCIDIKNGEL | amyloid nucleation score | inactive |
| IQASWFNWKWLL | amyloid nucleation score | inactive |
| LYFFYMPQTWVVSRCCGYNP | amyloid nucleation score | 3.06 |
| RPNFDYTIWSMTNWILFTCD | amyloid nucleation score | inactive |
| HGWYSVFADSRRYCKRVRYT | amyloid nucleation score | inactive |
| ESSNNPFFDQAYIYIKFY | amyloid nucleation score | -0.42 |
| EFFHNYVINMERYNCVLVRM | amyloid nucleation score | inactive |
| LSDGSHLSECYGFT | amyloid nucleation score | inactive |
| FKYYRSYYPYICLKSVI | amyloid nucleation score | inactive |
| TSGHVVTMEHRLLYVPTIGF | amyloid nucleation score | inactive |
| YIYNSLLYI | amyloid nucleation score | inactive |
| CELGDSGVIDDKIICVCYYL | amyloid nucleation score | inactive |
| LFIRQG | amyloid nucleation score | inactive |
| KIDLVGTLVMTIFNAQMQYE | amyloid nucleation score | 2.06 |
| IEFGGNN | amyloid nucleation score | 1.68 |
| ADVLTNRIGPCIKEGIKLGI | amyloid nucleation score | inactive |
| RIVGIYKGLLAD | amyloid nucleation score | inactive |
| NMWWNGSETNCESRVFEIET | amyloid nucleation score | inactive |
| SDTRGVF | amyloid nucleation score | inactive |
| DRSDSMYPINMREESREFTF | amyloid nucleation score | inactive |
| VTGNDQ | amyloid nucleation score | inactive |
| CYYRCDCLCMTWWGHRVIVV | amyloid nucleation score | inactive |
| LLSLAYVMRYI | amyloid nucleation score | 1.38 |
